Structures can show the parent of a compound that is named as a salt.
These records show IC50 for human TREX1 (Homo sapiens (Human)).

Compound	IC50
CC(C)C[C@H](C(=O)NS(=O)(=O)c1ccccc1)N1CCC(CCc2ccccc2)N2C[C@H](N)C[C@H]2C1=O (stereo partly drawn)	1 to 9.99 µM
CC(C)C[C@H](C(=O)NCc1ccc(Cl)c(Cl)c1)N1CCC(CCc2ccc(Cl)cc2)N2C[C@H](N)C[C@H]2C1=O (stereo partly drawn)	< 1 µM
CC(C)C[C@H](C(=O)NCc1ccc(Cl)c(Cl)c1)N1CCC(CCc2ccccc2)N(CCN)CC1=O (stereo partly drawn)	1 to 9.99 µM
CC(C)C[C@H](C(=O)NS(=O)(=O)c1ccc(Cl)c(Cl)c1)N1CCC(CCc2ccccc2)N2C[C@H](N)C[C@H]2C1=O (stereo partly drawn)	< 1 µM
CC(C)C[C@H](C(=O)NCc1ccc(Cl)c(Cl)c1)N1CCC(C)N2C[C@H](N)C[C@H]2C1=O (stereo partly drawn)	10 to 100 µM
CC(C)C[C@H](C(=O)NCc1ccc(C(F)(F)F)cc1)N1CCC(CCc2ccccc2)N2C[C@H](N)C[C@H]2C1=O (stereo partly drawn)	< 1 µM
NC(=O)CC[C@H](C(=O)NCc1ccc(Cl)c(Cl)c1)N1CCC(CCc2ccccc2)N2C[C@H](N)C[C@H]2C1=O (stereo partly drawn)	< 1 µM
CC(C)C[C@H](C(=O)NCc1ccccc1Cl)N1CCC(CCc2ccccc2)N2C[C@H](N)C[C@H]2C1=O (stereo partly drawn)	1 to 9.99 µM
CC(C)C[C@H](C(=O)NCc1ccc(Cl)c(Cl)c1)N1CCC(CCc2ccccc2)N2C[C@H](N(C)C)C[C@H]2C1=O (stereo partly drawn) [Example 21, HCl]	10 to 100 µM
CC(C)C[C@H](C(=O)NCc1ccccc1)N1CCC(CCc2ccccc2)N2C[C@H](N)C[C@H]2C1=O (stereo partly drawn)	1 to 9.99 µM
CC(=O)N[C@@H]1C[C@H]2C(=O)N([C@H](CC(C)C)C(=O)NCc3ccc(Cl)c(Cl)c3)CCC(CCc3ccccc3)N2C1 (stereo partly drawn) [Example 20, HCl]	1 to 9.99 µM
Cc1ccc(CNC(=O)[C@@H](CC(C)C)N2CCC(CCc3ccccc3)N3C[C@H](N)C[C@H]3C2=O)cc1 (stereo partly drawn)	1 to 9.99 µM
CC(C)C[C@H](C(=O)NCc1cc(Cl)cc(Cl)c1)N1CCC(CCc2ccccc2)N2C[C@H](N)C[C@H]2C1=O (stereo partly drawn)	< 1 µM
CC(C)C[C@H](C(=O)NCc1ccc(Cl)c(Cl)c1)N1CC(CCc2ccccc2)N2C[C@H](N)C[C@H]2C1=O (stereo partly drawn)	10 to 100 µM
CC(C)C[C@H](C(=O)N[C@@H](C)c1ccccc1)N1CCC(CCc2ccccc2)N2C[C@H](N)C[C@H]2C1=O (stereo partly drawn)	10 to 100 µM
CC(C)C[C@H](C(=O)NCc1cnccn1)N1CCC(CCc2ccccc2)N2C[C@H](N)C[C@H]2C1=O (stereo partly drawn)	1 to 9.99 µM
CC(C)C[C@H](C(=O)NCc1cscn1)N1CCC(CCc2ccccc2)N2C[C@H](N)C[C@H]2C1=O (stereo partly drawn)	1 to 9.99 µM
CC(C)C[C@H](C(=O)NCCc1ccc(Cl)c(Cl)c1)N1CCC(CCc2ccccc2)N2C[C@H](N)C[C@H]2C1=O (stereo partly drawn)	< 1 µM
CC(C)C[C@H](C(=O)NCc1ccc(F)cc1)N1CCC(CCc2ccccc2)N2C[C@H](N)C[C@H]2C1=O (stereo partly drawn)	< 1 µM
CC(C)C[C@H](C(=O)N(C)Cc1ccc(C(F)(F)F)cc1)N1CCC(CCc2ccccc2)N2C[C@H](N)C[C@H]2C1=O (stereo partly drawn)	1 to 9.99 µM
N[C@@H]1C[C@H]2C(=O)N([C@H](CCC(=O)O)C(=O)NCc3ccc(Cl)c(Cl)c3)CCC(CCc3ccccc3)N2C1 (stereo partly drawn) [Example 14A]	10 to 100 µM
N#CCC[C@H](C(=O)NCc1ccc(Cl)c(Cl)c1)N1CCC(CCc2ccccc2)N2C[C@H](N)C[C@H]2C1=O (stereo partly drawn)	< 1 µM
N[C@@H]1C[C@H]2C(=O)N([C@H](CC(=O)O)C(=O)NCc3ccc(Cl)c(Cl)c3)CCC(CCc3ccccc3)N2C1 (stereo partly drawn)	< 1 µM
N[C@@H]1C[C@H]2C(=O)N([C@H](Cc3ccc(O)cc3)C(=O)NCc3ccc(Cl)c(Cl)c3)CCC(CCc3ccccc3)N2C1 (stereo partly drawn)	< 1 µM
CC(C)C[C@H](C(=O)NCc1ccc(C#N)cc1)N1CCC(CCc2ccccc2)N2C[C@H](N)C[C@H]2C1=O (stereo partly drawn)	1 to 9.99 µM
CC(C)C[C@H](C(=O)NCC1CCCCC1)N1CCC(CCc2ccccc2)N2C[C@H](N)C[C@H]2C1=O (stereo partly drawn)	10 to 100 µM
CC(C)C[C@H](C(=O)NCc1ccc(Cl)c(Cl)c1)N1CCC(CS(=O)(=O)c2ccccc2)N2C[C@H](N)C[C@H]2C1=O (stereo partly drawn)	1 to 9.99 µM
